The reported measurements were obtained from PubChem BioAssay.

Entries annotated with measured composite z-score
- System: Lefty1
- Test details: Lefty1 protein binding to printed compounds – biochemical, small-molecule microarray, 635/667 nm fluorescence, primary screen (AID 1139)
- Experimental parameters: fluorescence 635/667, higher = more signal
Measurement name: composite z-score

INSERT INTO assay_data (molecule, target_system, measurement_name, experimental_value) VALUES
  ('O=C1C[C@]2(c3ccc([N+](=O)[O-])cc3)C(=O)N(C3CC3)c3cc(CO)ccc3[C@H]2N1CC12CC3CC(CC(C3)C1)C2', 'Lefty1', 'composite z-score', -1.5),
  ('CCCC=C(CCC)[C@@H](NC(=O)C(C)(C)C)c1ccc(C(=O)OC)cc1', 'Lefty1', 'composite z-score', -0.947),
  ('O=C(O)[C@@H]1C[C@@H]2C(=O)N3CCC[C@H]3C(=O)N2[C@@H]1c1ccc(O)cc1', 'Lefty1', 'composite z-score', 0.824),
  ('CC(c1ccccc1)C(O)C1C=CC2C(=O)N(C)C(=O)C2N1Nc1ccccc1 (stereo unspecified)', 'Lefty1', 'composite z-score', -0.17),
  ('COCCOC(=O)N1C(=O)[C@@]2(c3cc(C#CCCO)ccc31)[C@H](C(=O)Nc1nc3ccccc3s1)[C@H]1C(=O)O[C@H](c3ccccc3)[C@H](c3ccccc3)N1[C@@H]2c1ccc(O)cc1', 'Lefty1', 'composite z-score', 1.05),
  ('COc1cc2c(cc1O)C=[N+](Cc1sc3ccccc3c1Cl)CC2', 'Lefty1', 'composite z-score', 0.0893);
